- SYSTEM_UNDER_TEST: Lutropin-choriogonadotropic hormone receptor (Homo sapiens, UniProt P22888)
- Sequence (P22888 whole entry): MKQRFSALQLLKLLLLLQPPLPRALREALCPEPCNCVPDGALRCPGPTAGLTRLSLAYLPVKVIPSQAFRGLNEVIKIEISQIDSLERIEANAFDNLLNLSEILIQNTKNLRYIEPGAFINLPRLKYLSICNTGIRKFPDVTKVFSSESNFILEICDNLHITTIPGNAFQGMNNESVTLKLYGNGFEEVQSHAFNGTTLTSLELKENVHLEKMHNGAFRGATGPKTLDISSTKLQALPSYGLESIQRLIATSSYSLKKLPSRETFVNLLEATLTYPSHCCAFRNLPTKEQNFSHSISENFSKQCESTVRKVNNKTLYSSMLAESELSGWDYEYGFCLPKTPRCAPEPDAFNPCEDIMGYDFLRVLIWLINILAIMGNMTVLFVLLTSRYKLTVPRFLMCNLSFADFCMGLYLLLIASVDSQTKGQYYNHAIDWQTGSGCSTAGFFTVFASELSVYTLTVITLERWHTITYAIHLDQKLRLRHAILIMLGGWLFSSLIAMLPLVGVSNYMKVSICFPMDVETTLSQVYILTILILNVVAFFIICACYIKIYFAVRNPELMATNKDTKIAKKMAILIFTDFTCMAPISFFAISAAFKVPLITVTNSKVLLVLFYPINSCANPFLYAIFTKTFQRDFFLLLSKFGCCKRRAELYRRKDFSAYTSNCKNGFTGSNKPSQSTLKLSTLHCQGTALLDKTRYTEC
- PROCEDURE_SUMMARY: Agonist activity at human LH receptor expressed in CHO cells assessed as production of cAMP after 60 mins by SPA relative to luteinizing harmone
- Assay type: functional, cell-based
RESULT_TYPE: Activity (%)
Provide only the numeric value, understood in %.

Worked examples, 5 compounds total:
>>> recorded_result("CC(C)(C)c1ccc(-n2nc(-c3cc4ccccc4cn3)cc2-c2cccc(C(=O)N[C@@H](Cc3ccc(O)cc3)C(N)=O)c2)cc1")
19
>>> recorded_result("CC(C)(C)c1ccc(-n2nc(-c3ccccn3)cc2CCCCCC(=O)N[C@@H](Cc2cccc(O)c2)C(N)=O)cc1")
41
>>> recorded_result("CC(C)(C)c1ccc(-n2nc(-c3ccccn3)cc2CCCCCC(=O)N[C@H](C(N)=O)c2ccc(O)cc2)cc1")
78
>>> recorded_result("CC(C)(C)Oc1ccc(C[C@H](NC(=O)CCCCc2cc(-c3cccnc3)nn2-c2ccc(C(C)(C)C)cc2)C(N)=O)cc1")
72
>>> recorded_result("CC(C)(C)c1ccc(-n2nc(-c3ccncc3)cc2CCCCC(=O)N[C@H](CC(N)=O)Cc2ccc(O)cc2)cc1")
66

Q: Please give the measured Activity for this compound: `CC(C)(C)c1ccc(-n2nc(-c3cccnc3)cc2CCCCC(=O)N[C@@H](Cc2ccc(O)cc2)C(N)=O)cc1`
Ans: 70

Q: Next compound: `CC(C)(C)c1ccc(-n2nc(-c3cccnc3)cc2CCCCC(=O)NCCc2ccc(O)cc2)cc1`
Ans: 45

Q: Next compound: `CC(C)(C)c1ccc(-n2nc(-c3ccncc3)cc2CCCCC(=O)N[C@@H](Cc2ccc(O)cc2)C(N)=O)cc1`
Ans: 55

Origin of measurements: ChEMBL document CHEMBL1139172
